system: wild type cells; assay: Zero-trans glucose uptake in wild type yeast cells; type: cell-based, S. cerevisiae; settings: Dixon plot analysis; printed K′; read-out: K′i, glucose uptake, wild type cells
parameter.measured: pKi
# pKi is unitless: minus log10 of the molar concentration; print number only

stdin: Which pKi value belongs to `Cc1nc(Sc2nnc3n2CCCCC3)c2c(-c3cccs3)csc2n1` ?
stdout: 4.44

---

biological target: human GLUT4^V85M (Homo sapiens, UniProt P14672, V85M); construct: HA (C); experiment: Glucose uptake by GLUT4^V85M expressed in hxt^0 erg4Δ (EBY.VW4000) yeast; conditions: 2.5 mM glucose
Sequence (P14672 whole entry V85M): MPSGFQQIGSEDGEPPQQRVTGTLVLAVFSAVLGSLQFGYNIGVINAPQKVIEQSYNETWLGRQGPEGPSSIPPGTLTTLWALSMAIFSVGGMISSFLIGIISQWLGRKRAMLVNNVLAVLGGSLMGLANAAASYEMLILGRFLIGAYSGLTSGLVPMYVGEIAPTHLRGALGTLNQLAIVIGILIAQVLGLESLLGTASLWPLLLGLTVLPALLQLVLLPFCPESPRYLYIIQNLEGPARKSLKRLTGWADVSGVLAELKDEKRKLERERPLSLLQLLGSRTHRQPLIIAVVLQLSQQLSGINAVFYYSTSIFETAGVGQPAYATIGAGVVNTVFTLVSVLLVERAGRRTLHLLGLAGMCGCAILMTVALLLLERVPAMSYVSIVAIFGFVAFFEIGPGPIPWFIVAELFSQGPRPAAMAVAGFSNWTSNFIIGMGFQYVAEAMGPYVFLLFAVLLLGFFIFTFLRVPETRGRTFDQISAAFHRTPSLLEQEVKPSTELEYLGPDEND
parameter.measured: IC50 (µM)
Write it as a number; the unit µM goes unstated.

stdin: Which IC50 value belongs to Cc1nc(Sc2nnc3n2CCCCC3)c2c(-c3cccs3)csc2n1 [WBC-A] ?
stdout: 20.9

---

tested on: A549 lung adenocarcinoma cells; test: A549 cell proliferation / growth inhibition; assay type: cell-based, human; conditions: 1 mM glucose, 6.25-50 μM
parameter.measured: Potency in reducing maximal growth rate of A549 cells

* Cc1nc(Sc2nnc3n2CCCCC3)c2c(-c3cccs3)csc2n1 | intermediate potency
* Cc1nc(NCC(=O)NCc2ccco2)c2c(-c3ccccc3)csc2n1 | intermediate potency
* Cc1nc(SCC(=O)c2ccc3c(c2)NC(=O)CO3)c2c(-c3cccs3)csc2n1 [WBC-11C] | most

---

target: yeast Hxt7 carrier (Saccharomyces cerevisiae, UniProt P39004); construct: HA (C); EBY.VW4000 (hxt0 erg4Δ) in A7; plasmid 'pHXT7'; assay: Glucose uptake by Hxt7 expressed in hxt^0 gal2Δ (RE700A) yeast
Sequence (P39004 whole entry): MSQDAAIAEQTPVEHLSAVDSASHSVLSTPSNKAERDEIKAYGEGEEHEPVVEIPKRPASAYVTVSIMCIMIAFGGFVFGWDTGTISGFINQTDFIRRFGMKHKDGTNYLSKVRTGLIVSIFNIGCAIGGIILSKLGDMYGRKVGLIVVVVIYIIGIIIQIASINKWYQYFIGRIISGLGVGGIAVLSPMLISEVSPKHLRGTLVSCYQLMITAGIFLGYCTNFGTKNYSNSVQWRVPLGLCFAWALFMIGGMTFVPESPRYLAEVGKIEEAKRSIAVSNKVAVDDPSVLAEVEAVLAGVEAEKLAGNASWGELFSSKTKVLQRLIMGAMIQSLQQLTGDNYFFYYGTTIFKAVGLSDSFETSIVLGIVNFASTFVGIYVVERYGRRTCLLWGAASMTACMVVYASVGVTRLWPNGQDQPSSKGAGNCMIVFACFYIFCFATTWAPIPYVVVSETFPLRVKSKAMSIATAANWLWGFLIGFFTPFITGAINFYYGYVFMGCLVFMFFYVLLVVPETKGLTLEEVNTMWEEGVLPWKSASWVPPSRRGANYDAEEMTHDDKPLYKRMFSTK
parameter.measured: IC50 (µM)
Write it as a number; the unit µM goes unstated.

stdin: Which IC50 value belongs to Cc1nc(Sc2nnc3n2CCCCC3)c2c(-c3cccs3)csc2n1 [WBC-A] ?
stdout: 51
